Provenance of the data: patent US7015329B2

Entries and their measured EC50 follow.
target: PPAR alpha (Homo sapiens, UniProt Q07869); construct: expressed in transfected cells; host or cells: HEK293; test: Transfection assay for PPAR receptors (GAL4-LBD luciferase reporter), PPAR alpha; type: cell-based; details: Table 1; HEK293 cells co-transfected with PPAR LBD-GAL4 and GAL4 (UAS) luciferase reporter, 18–24 hrs
Sequence (Q07869 239-466 limits assumed, species assumed): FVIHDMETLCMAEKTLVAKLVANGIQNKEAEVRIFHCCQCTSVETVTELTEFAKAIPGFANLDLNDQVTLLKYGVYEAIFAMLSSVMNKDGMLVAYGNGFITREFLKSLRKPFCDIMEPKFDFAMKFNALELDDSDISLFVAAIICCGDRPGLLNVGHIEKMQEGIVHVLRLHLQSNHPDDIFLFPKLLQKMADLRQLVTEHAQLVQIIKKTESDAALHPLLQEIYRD
Readout Label: EC50 (nM)

{"Molecule": "Cc1cc(SCc2nc(-c3ccc(OC(F)(F)F)cc3)ns2)ccc1OC(C)(C)C(=O)O [Compound 4]", "Unit Abbrev": "nM", "Relation Symbol": "=", "Meas Value": 33}
{"Molecule": "Cc1cc(SCc2nc(-c3ccc(OC(F)(F)F)c(Cl)c3)ns2)ccc1OC(C)(C)C(=O)O [Compound 8]", "Unit Abbrev": "nM", "Relation Symbol": "=", "Meas Value": 28}
{"Molecule": "Cc1cc(SCc2nc(-c3ccc(Cl)c(Cl)c3)ns2)ccc1OC1(C(=O)O)CCCC1 [Compound 15]", "Unit Abbrev": "nM", "Relation Symbol": ">", "Meas Value": 3000}
{"Molecule": "Cc1cc(SCc2nc(-c3ccc(Cl)cc3Cl)ns2)ccc1OC(C)(C)C(=O)O [Compound 10]", "Unit Abbrev": "nM", "Relation Symbol": "=", "Meas Value": 476}
{"Molecule": "CC(C)(Oc1ccc(SCc2nc(-c3ccc(C(F)(F)F)cc3)ns2)cc1)C(=O)O [Compound 2]", "Unit Abbrev": "nM", "Relation Symbol": "=", "Meas Value": 155}
{"Molecule": "Cc1cc(OCc2nc(-c3ccc(OC(F)(F)F)c(Cl)c3)ns2)ccc1OC(C)(C)C(=O)O [Compound 25]", "Unit Abbrev": "nM", "Relation Symbol": "=", "Meas Value": 96.8}
{"Molecule": "Cc1cc(SCc2nsc(-c3ccc(Cl)cc3)n2)ccc1OC(C)(C)C(=O)O [Compound 18]", "Unit Abbrev": "nM", "Relation Symbol": ">", "Meas Value": 3000}

====

target: PPAR gamma (Homo sapiens, UniProt P37231); construct: expressed in transfected cells; host or cells: HEK293; assay: Transfection assay for PPAR receptors (GAL4-LBD luciferase reporter), PPAR gamma; format: cell-based; conditions: Table 1; HEK293 cells co-transfected with PPAR LBD-GAL4 and GAL4 (UAS) luciferase reporter, 18–24 hrs
Sequence (P37231 238-503 limits assumed, species assumed): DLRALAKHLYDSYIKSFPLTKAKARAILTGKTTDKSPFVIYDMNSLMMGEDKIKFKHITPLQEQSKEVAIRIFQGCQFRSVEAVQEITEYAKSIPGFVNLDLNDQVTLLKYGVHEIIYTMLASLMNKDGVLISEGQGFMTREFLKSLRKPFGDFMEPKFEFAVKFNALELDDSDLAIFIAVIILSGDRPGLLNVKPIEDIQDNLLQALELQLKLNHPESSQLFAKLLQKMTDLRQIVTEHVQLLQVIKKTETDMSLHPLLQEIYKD
pEC50: −log10 of the molar value.

{"Compound Smiles": "Cc1cc(OCc2nc(-c3ccc(OC(F)(F)F)cc3)ns2)ccc1OC(C)(C)C(=O)O", "System Tested": "PPAR gamma (Homo sapiens, UniProt P37231)", "pEC50": "< 5.52"}
{"Compound Smiles": "Cc1cc(SCc2nsc(-c3ccc(Cl)cc3)n2)ccc1OC(C)(C)C(=O)O", "System Tested": "PPAR gamma (Homo sapiens, UniProt P37231)", "pEC50": "< 5.52"}
{"Compound Smiles": "Cc1cc(SCCc2nc(-c3ccc(Cl)c(Cl)c3)ns2)ccc1OC(C)(C)C(=O)O", "System Tested": "PPAR gamma (Homo sapiens, UniProt P37231)", "pEC50": "< 6.00"}

====

Each entry below lists one item and its recorded pEC50 value.
target: PPAR delta (Homo sapiens); construct: expressed in transfected cells; host or cells: HEK293; experiment: Transfection assay for PPAR receptors (GAL4-LBD luciferase reporter), PPAR delta; assay type: cell-based; conditions: Table 1; HEK293 cells co-transfected with PPAR LBD-GAL4 and GAL4 (UAS) luciferase reporter, 18–24 hrs
Sequence (Q03181 211-439 limits assumed, species assumed): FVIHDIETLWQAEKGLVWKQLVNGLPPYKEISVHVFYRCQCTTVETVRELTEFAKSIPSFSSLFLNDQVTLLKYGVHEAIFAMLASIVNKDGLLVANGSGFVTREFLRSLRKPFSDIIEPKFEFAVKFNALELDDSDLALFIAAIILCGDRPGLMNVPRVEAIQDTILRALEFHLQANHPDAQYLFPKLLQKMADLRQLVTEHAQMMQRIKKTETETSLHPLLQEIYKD
pEC50: −log10 of the molar value.

{"Compound Smiles": "Cc1cc(OCc2nc(-c3ccc(OC(F)(F)F)cc3)ns2)ccc1OC(C)(C)C(=O)O", "Relation Symbol": "=", "pEC50": 7.91}
{"Compound Smiles": "Cc1cc(SCc2nc(-c3ccc(C(F)(F)F)cc3)ns2)ccc1OC(C)(C)C(=O)O", "Relation Symbol": "=", "pEC50": 8.12}
{"Compound Smiles": "CC(C)(Oc1ccc(SCc2nc(-c3ccc(C(F)(F)F)cc3)ns2)cc1)C(=O)O", "Relation Symbol": "=", "pEC50": 7.70}
{"Compound Smiles": "Cc1cc(SCCc2nc(-c3ccc(Cl)c(Cl)c3)ns2)ccc1OC(C)(C)C(=O)O", "Relation Symbol": "=", "pEC50": 8.03}
{"Compound Smiles": "Cc1cc(SCc2nsc(-c3ccc(Cl)cc3)n2)ccc1OC(C)(C)C(=O)O", "Relation Symbol": "=", "pEC50": 6.63}
{"Compound Smiles": "Cc1ccc(-c2nsc(COc3ccc(OC(C)(C)C(=O)O)c(C)c3)n2)cc1Cl", "Relation Symbol": "=", "pEC50": 6.83}
{"Compound Smiles": "Cc1cc(SCc2nc(-c3ccc(OC(F)(F)F)cc3)ns2)ccc1OC1(C(=O)O)CCCC1", "Relation Symbol": "<", "pEC50": 6.00}
{"Compound Smiles": "Cc1ccc(-c2nsc(CSc3ccc(OC(C)(C)C(=O)O)c(C)c3)n2)cc1C", "Relation Symbol": "=", "pEC50": 7.03}

====

target: PPAR alpha (Homo sapiens, UniProt Q07869); construct: expressed in transfected cells; host or cells: HEK293; assay: Transfection assay for PPAR receptors (GAL4-LBD luciferase reporter), PPAR alpha; format: cell-based; conditions: Table 1; HEK293 cells co-transfected with PPAR LBD-GAL4 and GAL4 (UAS) luciferase reporter, 18–24 hrs
pEC50: −log10 of the molar value.
Readout Label: pEC50

{"Compound Smiles": "Cc1ccc(-c2nsc(CSc3ccc(OC(C)(C)C(=O)O)c(C)c3)n2)cc1", "Meas Value": 6.65}
{"Compound Smiles": "Cc1cc(SCc2nc(-c3ccc(OC(F)(F)F)cc3)ns2)ccc1OC1(C(=O)O)CCCC1", "Meas Value": 6.13}
{"Compound Smiles": "Cc1cc(OCc2nc(-c3ccc(OC(F)(F)F)cc3)ns2)ccc1OC(C)(C)C(=O)O", "Meas Value": 7.03}
{"Compound Smiles": "Cc1cc(SCc2nc(-c3ccc(C(F)(F)F)cc3)ns2)ccc1OC(C)(C)C(=O)O", "Meas Value": 7.06}

====

target: PPAR alpha (Homo sapiens); construct: expressed in transfected cells; host or cells: HEK293; experiment: Transfection assay for PPAR receptors (GAL4-LBD luciferase reporter), PPAR alpha; format: cell-based; details: Table 2, compounds of interest; HEK293 cells, PPAR LBD-GAL4 luciferase reporter, 18–24 hrs
pEC50: −log10 of the molar value.

{"Compound": "Cc1cc(SCc2csnc2-c2ccc(C(F)(F)F)cc2)ccc1OCC(=O)O [Compound d]", "pEC50": "< 5.52"}
{"Compound": "Cc1cc(SCc2cc(-c3ccc(C(F)(F)F)cc3)no2)ccc1OCC(=O)O [Compound f]", "pEC50": "< 5.52"}
{"Compound": "Cc1cc(SCc2cc(-c3ccc(C(F)(F)F)cc3)ns2)ccc1OCC(=O)O [Compound c]", "pEC50": "< 6.00"}
{"Compound": "Cc1cc(SCc2cc(-c3ccc(C(F)(F)F)cc3)on2)ccc1OCC(=O)O [Compound g]", "pEC50": 5.66}
{"Compound": "Cc1cc(SCc2cc(-c3ccc(C(F)(F)F)cc3)sn2)ccc1OCC(=O)O [Compound b]", "pEC50": "< 5.52"}
{"Compound": "Cc1cc([S+]([O-])Cc2nc(-c3ccc(Cl)c(Cl)c3)ns2)ccc1OC(C)(C)C(=O)O (stereo not drawn) [Compound a]", "pEC50": "< 5.52"}
